Recorded measurements of PBM binding z-score, one per entry
Test system: PXR:RXRa (NR concentration 270 nM, RXRa partner concentration 90 nM)
Assay: PBM binding z-score (relative to random genomic background probes); higher = stronger binding; sequences stand for … in GC…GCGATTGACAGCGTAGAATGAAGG
recorded-endpoint: PBM binding z-score

| chain | recorded-endpoint | recorded-measurement |
| --- | --- | --- |
| ATCGAAAGGTCGAGGGGAGTATAGAGAAAGGGAA | PBM binding z-score | 2.27 |
| ACTAGTTGGTCAGCTGAGGTCACCCACAATTCGG | PBM binding z-score | 5.45 |
| ATTAGCAGGCCAAGTTTGGGTCACTCAAACAAAG | PBM binding z-score | 0.924 |
| TCATATAGGTAAATGCTAGATGAAAGTCCGATCT | PBM binding z-score | 0.422 |
| ACAGACAGGTGAGTAAAGGTAACTCAGCTGGACG | PBM binding z-score | 0.082 |
| TCAGACTGGTGAAGGTAACTCAGGTACGCAGTCG | PBM binding z-score | 0.0294 |
| CGAACGAGGGCATGACTTGATAGCAAATGCCGAT | PBM binding z-score | 0.219 |
